Recorded solubility at 90 min values for a group of molecules are listed next.
- testDescription: physchem
- settings: pH 4, aqueous buffer, kinetic from dmso stock

1) C/C(=N\OC(=O)[C@@H]1CCCNC1)[C@H]1CC[C@H]2[C@@H]3CCC4=CC(=O)CC[C@]4(C)[C@H]3CC[C@]12C.Cl [Compound 21]    > 500 µM
2) C/C(=N\OC(=O)C1CCN(C)CC1)[C@H]1CC[C@H]2[C@@H]3CCC4=CC(=O)CC[C@]4(C)[C@H]3CC[C@]12C [Compound 19]    > 660 µM
3) C/C(=N\OC(=O)c1ccc(CN)cc1)[C@H]1CC[C@H]2[C@@H]3CCC4=CC(=O)CC[C@]4(C)[C@H]3CC[C@]12C.Cl [Compound 16]    < 30 µM
4) C/C(=N\OC(=O)c1ccc[n+](C)c1)[C@H]1CC[C@H]2[C@@H]3CCC4=CC(=O)CC[C@]4(C)[C@H]3CC[C@]12C.[I-] [Compound 15]    349 µM
5) C/C(=N\OC(=O)C1CC[N+](C)(C)CC1)[C@H]1CC[C@H]2[C@@H]3CCC4=CC(=O)CC[C@]4(C)[C@H]3CC[C@]12C.[I-] [Compound 20]    > 500 µM

Prompt: Let me know recorded solubility at 90 min for C/C(=N\OC(=O)[C@@H](N)C(C)C)[C@H]1CC[C@H]2[C@@H]3CCC4=CC(=O)CC[C@]4(C)[C@H]3CC[C@]12C.Cl [Compound 7] , thanks.
Response: > 645 µM

###

- testDescription: physchem
- settings: pH 7, aqueous buffer, kinetic from dmso stock
measurementType: solubility at 90 min

1. C/C(=N\OC(=O)C1CC[N+](C)(C)CC1)[C@H]1CC[C@H]2[C@@H]3CCC4=CC(=O)CC[C@]4(C)[C@H]3CC[C@]12C.[I-]    > 500 µM

Prompt: Let me know recorded solubility at 90 min for CC(=O)[C@H]1CC[C@H]2[C@@H]3CCC4=C/C(=N/O)CC[C@]4(C)[C@H]3CC[C@]12C , thanks.
Response: < 45 µM

Prompt: Let me know recorded solubility at 90 min for C/C(=N\OC(=O)c1ccc(CN)cc1)[C@H]1CC[C@H]2[C@@H]3CCC4=CC(=O)CC[C@]4(C)[C@H]3CC[C@]12C.Cl , thanks.
Response: < 30 µM

Prompt: Let me know recorded solubility at 90 min for CC(=O)[C@H]1CC[C@H]2[C@@H]3CCC4=CC(=O)CC[C@]4(C)[C@H]3CC[C@]12C [PROG, Progesterone, reference compound] , thanks.
Response: < 25 µM

Prompt: Let me know recorded solubility at 90 min for C/C(=N\OC(=O)c1cccnc1)[C@H]1CC[C@H]2[C@@H]3CCC4=CC(=O)CC[C@]4(C)[C@H]3CC[C@]12C , thanks.
Response: < 35 µM

Prompt: Let me know recorded solubility at 90 min for CO/N=C(\C)[C@H]1CC[C@H]2[C@@H]3CCC4=CC(=O)CC[C@]4(C)[C@H]3CC[C@]12C , thanks.
Response: < 25 µM

Prompt: Let me know recorded solubility at 90 min for C/C(=N\OC(=O)c1ccc(CN2CCN(C)CC2)cc1)[C@H]1CC[C@H]2[C@@H]3CCC4=CC(=O)CC[C@]4(C)[C@H]3CC[C@]12C , thanks.
Response: < 30 µM
